// provenance: PubChem BioAssay (NCI)

test system: HCT-116 colon; assay: NCI-60 one-dose screen, 48 h (100 = growth as untreated, 0 = no growth, -100 = all killed); conditions: 10 µM unless noted
This is part of a sample that, as a whole, favours compounds with a hit. Of some 83,000 tested, about 20% had one in any assay. Calls of active or inactive are those of the source. Rule for the calls: active = growth percent below 10; inactive = the rest.
Measured growth, listed per entry for reference.

# example entries with known answers
Memo: `C=CCOc1ccc(N=NC(C#N)C#N)cc1` , reported growth: 46.8% (inactive)

The measured growth associated with N#CC1C(=O)SC2c3ccccc3C(=O)c3ccccc3C12 (stereo not drawn) reads 102% (inactive)

For reference, reported growth for `O=Nc1ccccc1N=O` stands at 92.8% (inactive)

What the record says about `COc1ccccc1/C=C\C(=O)c1ccccc1` : growth is 22% (inactive)

Entry CN(C)c1ccc(C(=C2C=CC(=[N+](C)C)C=C2)c2ccc(N(C)C)cc2)cc1 (tested in a mixture with another compound) , growth reported as -76% (active)

Would you kindly look at the next entry?
Field growth (entry `COc1cc(/C=C(/C)C[N+](=O)[O-])ccc1O` ) reads 82.7% (inactive)
